TARGET_SYSTEM: human MC4R (Homo sapiens, UniProt P32245)
Construct: expressed in transfected cells
Sequence (P32245 whole entry): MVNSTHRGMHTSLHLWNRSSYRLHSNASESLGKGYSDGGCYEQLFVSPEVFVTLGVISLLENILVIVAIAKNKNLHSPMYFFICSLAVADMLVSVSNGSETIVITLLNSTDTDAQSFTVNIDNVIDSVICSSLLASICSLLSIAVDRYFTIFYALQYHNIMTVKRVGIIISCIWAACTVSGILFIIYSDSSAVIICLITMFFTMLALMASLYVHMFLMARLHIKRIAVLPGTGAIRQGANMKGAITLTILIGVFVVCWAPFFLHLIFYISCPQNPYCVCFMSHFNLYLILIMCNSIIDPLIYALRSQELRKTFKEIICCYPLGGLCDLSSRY
TEST_METHOD_NOTES: Functional cAMP assay (CisBio HTRF) in BHK cells expressing human MC4R
Format: cell-based
RECORDED_CONDITIONS: BHK cells expressing human MC4R; '>' = highest dose used with no response; read-out: MC4R cAMP EC50
pEC50: −log10 of the molar value. Positions of bridges follow the written chain, without caps; N, C: chain ends. Non-standard residues stand in square brackets, D forms with d. Residues, ends and D or L forms follow the SMILES beside them. Phe(3,4-Cl2) = N[C@@H](Cc1ccc(Cl)c(Cl)c1)C(=O)O; Phe(4-CN) = N#Cc1ccc(C[C@H](N)C(=O)O)cc1
// Not met strictly below 10 in pEC50; Met otherwise

Confirm if pEC50 reported for the compound C[C@@H]1NC(=O)[C@@H]2CSSC[C@H](NC(=O)[C@H](Cc3ccc(C#N)cc3)NC(=O)[C@H](CCCNC(=N)N)NC(=O)[C@@H](Cc3ccccc3)NC(=O)[C@H](Cc3c[nH]cn3)NC1=O)C(=O)N[C@@H](C)C(=O)N[C@@H](CCCCN)C(=O)N[C@@H](CCCCN)C(=O)N[C@@H](CCCCN)C(=O)N[C@@H](Cc1c[nH]c3ccccc13)C(=O)N2 [Chem. 65] (cyclo(AH[dF]R[Phe(4-CN)]CAKKKWC); disulfide 6-12) is 10 or above.
Not met

Try the compound C[C@@H]1NC(=O)[C@@H]2CSSC[C@H](NC(=O)[C@H](Cc3ccc(Cl)c(Cl)c3)NC(=O)[C@H](CCCNC(=N)N)NC(=O)[C@@H](Cc3ccccc3)NC(=O)[C@H](Cc3c[nH]cn3)NC1=O)C(=O)N[C@@H](C)C(=O)N[C@@H](CCCCN)C(=O)N[C@@H](CCCCN)C(=O)N[C@@H](CCCCN)C(=O)N[C@@H](Cc1c[nH]c3ccccc13)C(=O)N2 [Chem. 66] (cyclo(AH[dF]R[Phe(3,4-Cl2)]CAKKKWC); disulfide 6-12)
Met

###

TARGET_SYSTEM: human MC4R (Homo sapiens, UniProt P32245)
Construct: expressed in transfected cells
TEST_METHOD_NOTES: Functional cAMP assay (CisBio HTRF) in BHK cells expressing human MC4R
Format: cell-based
RECORDED_CONDITIONS: MC1R cAMP EC50 divided by MC4R cAMP EC50
Positions of bridges follow the written chain, without caps; N, C: chain ends. Non-standard residues stand in square brackets, D forms with d. Residues, ends and D or L forms follow the SMILES beside them. Orn = NCCC[C@H](N)C(=O)O; Thz = O=C(O)[C@@H]1CSCN1; Aib = CC(C)(N)C(=O)O; βAla = NCCC(=O)O
QUANTITY: MC1R/MC4R cAMP EC50 ratio
Answer as a number with no unit attached.

// lookup MC1R/MC4R cAMP EC50 ratio for N=C(N)NCCC[C@@H]1NC(=O)[C@@H](Cc2ccccc2)NC(=O)[C@H](Cc2c[nH]cn2)NC(=O)CNC(=O)[C@@H]2CSSC[C@H](NC(=O)[C@H](Cc3c[nH]c4ccccc34)NC1=O)C(=O)NCC(=O)N[C@@H](Cc1c[nH]cn1)C(=O)N[C@H](Cc1ccccc1)C(=O)N[C@@H](CCCNC(=N)N)C(=O)N[C@@H](Cc1c[nH]c3ccccc13)C(=O)N2 [Chem. 2] (cyclo(CGH[dF]RWCGH[dF]RW); disulfide 1-7)
154

Try the molecule C[C@@H]1NC(=O)[C@@H]2CSSC[C@H](NC(=O)[C@H](CCCNC(=N)N)NC(=O)[C@H](CCCCN)NC(=O)[C@H](CCCCN)NC(=O)[C@H](Cc3c[nH]cn3)NC1=O)C(=O)N1CCC[C@H]1C(=O)N[C@@H](Cc1c[nH]cn1)C(=O)N[C@H](Cc1ccccc1)C(=O)N[C@@H](Cc1c[nH]cn1)C(=O)N[C@@H](Cc1c[nH]c3ccccc13)C(=O)N2 [Chem. 96] (cyclo(AHKKRCPH[dF]HWC); disulfide 6-12)
1442

Try the molecule C[C@@H]1NC(=O)[C@@H]2CSSC[C@H](NC(=O)[C@H](CCCNC(=N)N)NC(=O)[C@@H](CCCCN)NC(=O)[C@@H](CCCCN)NC(=O)[C@H](Cc3c[nH]cn3)NC1=O)C(=O)N1CCC[C@H]1C(=O)N[C@@H](Cc1c[nH]cn1)C(=O)N[C@H](Cc1ccccc1)C(=O)N[C@@H](Cc1c[nH]cn1)C(=O)N[C@@H](Cc1c[nH]c3ccccc13)C(=O)N2 [Chem. 121] (cyclo(AH[dK][dK]RCPH[dF]HWC); disulfide 6-12)
786

Try the molecule CC1(C)NC(=O)[C@@H]2CSSC[C@H](NC(=O)[C@H](Cc3c[nH]c4ccccc34)NC(=O)[C@H](CCCNC(=N)N)NC(=O)[C@@H](Cc3ccccc3)NC(=O)[C@@H]3CCCN3C1=O)C(=O)NC(C)(C)C(=O)N1CCC[C@H]1C(=O)N[C@H](Cc1ccccc1)C(=O)N[C@@H](CCCNC(=N)N)C(=O)N[C@@H](Cc1c[nH]c3ccccc13)C(=O)N2 [Chem. 39] (cyclo([Aib]P[dF]RWC[Aib]P[dF]RWC); disulfide 6-12)
37

Try the molecule N=C(N)NCCC[C@@H]1NC(=O)[C@@H](Cc2ccccc2)NC(=O)[C@H](Cc2c[nH]cn2)NC(=O)[C@@H]2CCCN2C(=O)[C@@H]2CSSC[C@H](NC(=O)[C@H](Cc3c[nH]c4ccccc34)NC1=O)C(=O)N1CCC[C@H]1C(=O)N[C@@H](Cc1c[nH]cn1)C(=O)N[C@H](Cc1ccccc1)C(=O)N[C@@H](CCCNC(=N)N)C(=O)N[C@@H](Cc1c[nH]c3ccccc13)C(=O)N2 [Chem. 30] (cyclo(CPH[dF]RWCPH[dF]RW); disulfide 1-7)
5

Try the molecule N=C(N)NCCC[C@@H]1NC(=O)[C@@H](Cc2ccccc2)NC(=O)[C@H](Cc2c[nH]cn2)NC(=O)CCNC(=O)[C@@H]2CSSC[C@H](NC(=O)[C@H](Cc3c[nH]c4ccccc34)NC1=O)C(=O)NCCC(=O)N[C@@H](Cc1c[nH]cn1)C(=O)N[C@H](Cc1ccccc1)C(=O)N[C@@H](CCCNC(=N)N)C(=O)N[C@@H](Cc1c[nH]c3ccccc13)C(=O)N2 [Chem. 25] (cyclo(C[βAla]H[dF]RWC[βAla]H[dF]RW); disulfide 1-7)
17

Try the molecule `C[C@@H]1NC(=O)[C@@H]2CSCSC[C@H](NC(=O)[C@H](Cc3c[nH]c4ccccc34)NC(=O)[C@H](CCCNC(=N)N)NC(=O)[C@@H](Cc3ccccc3)NC(=O)[C@H](Cc3c[nH]cn3)NC1=O)C(=O)N[C@@H](C)C(=O)N[C@@H](Cc1c[nH]cn1)C(=O)N[C@H](Cc1ccccc1)C(=O)N[C@@H](CCCNC(=N)N)C(=O)N[C@@H](Cc1c[nH]c3ccccc13)C(=O)N2`
88

Try the molecule C[C@@H]1NC(=O)[C@H](C)NC(=O)[C@H](CCCN)NC(=O)[C@H](CCCN)NC(=O)[C@@H]2CSSC[C@H](NC(=O)[C@H](Cc3c[nH]c4ccccc34)NC1=O)C(=O)N1CSC[C@H]1C(=O)N[C@@H](Cc1c[nH]cn1)C(=O)N[C@H](Cc1ccccc1)C(=O)N[C@@H](Cc1c[nH]cn1)C(=O)N[C@@H](Cc1c[nH]c3ccccc13)C(=O)N2 [Chem. 116] (cyclo(AAWC[Thz]H[dF]HWC[Orn][Orn]); disulfide 4-10)
1927
